# system.under.test: T1, PUF4 RNA-binding domain (Saccharomyces cerevisiae, UniProt P25339 537-888)
# T1 sequence: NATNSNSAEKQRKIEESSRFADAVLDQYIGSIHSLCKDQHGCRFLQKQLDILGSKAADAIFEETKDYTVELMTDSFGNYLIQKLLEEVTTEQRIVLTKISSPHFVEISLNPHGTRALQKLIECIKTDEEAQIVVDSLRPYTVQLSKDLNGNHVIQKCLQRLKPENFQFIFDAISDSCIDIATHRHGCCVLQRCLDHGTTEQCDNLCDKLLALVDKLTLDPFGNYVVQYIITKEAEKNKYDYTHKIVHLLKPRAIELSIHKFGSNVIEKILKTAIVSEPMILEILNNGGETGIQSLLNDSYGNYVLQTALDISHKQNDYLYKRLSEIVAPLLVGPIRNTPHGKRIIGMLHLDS
# test.description: Mg; RNA-MaP; 20 mM Na-HEPES pH 7.4, 30 mM KOAc, 0.75 mM MgCl2, 0.1% Tween-20, 5% glycerol, 0.1 mg/mL BSA, 2 mM DTT; 25 C; 0.0125-409.6 nM protein
# experimental.parameters: tags: N-His6-TEV cleaved; C-SNAP kept, Cy3B-labelled; label: tethered on chip by stalled RNA polymerase
readout.label: pKd
In plain terms, pKd is the concentration in mol/L turned into minus its base-10 logarithm.

For orientation, consider the following solved cases.
- Ic_S2_P3E.1_K3.1_C3.1_H3.1_A3.1_[T5C]_[A6C]_F3.1_[A8G]_T3.1 (ssRNA) RNA: UUUGAUUAAUAUGAUAUCGUUCUUUCUUGUACCUGUUCUUUCUCGAUAUCAUAUUAAUCUUU: 7.75
- Id_ii_S4_P5E.3_K5.2_C5.2_[C-2A]_[T-1C]_H5.2_A5.1_F5.1_T5.2_[T11C]_[A12G] (ssRNA) RNA: UUUGACAACUGAUCGUUCUUUCUACUAUAUUAUUACGUUCUUUCUCGAUCAGUUGUCUUU: 5.94
- Id_ii_S4_P3E.4_K3.3_C3.2_H3.3_A3.1_F3.1_T3.2_[T9C]_[A10T] (ssRNA) RNA: UUUGACAACUGAUCGUUCUUUCUCUACACUAUACUUUCUUUCUCGAUCAGUUGUCUUU: 5.86

The measured pKd associated with Id_ii_S2_P3E.3_K3.2_C3.2_[C-2T]_[T-1A]_H3.2_A3.1_F3.1_T3.2_[T9A] (ssRNA) RNA: UUUGAUUAAUAUGAUAUCGUUCUUUCUUAUAUAUAUAAAUUCUUUCUCGAUAUCAUAUUAAUCUUU reads 6.30
